Origin of the recorded values: paper PMC8315922

target: CSR3 (RNase III of SPCSV) (Sweet potato chlorotic stunt virus, UniProt Q8JJW8); test: Kinetic-based FRET dose-response assay (IC50, DSS); format: biochemical; details: read-out: IC50 FIMM1; repeat FIMM 1 (FIMM library compounds), 1.25 nM to 50 μM; unit inferred, numbers match nM (cf. Fig 5A)
# IC50 listing for each entry below

{"columns": ["compound", "IC50"],
 "data": [
  ["O=C(O)c1ccc2c(c1)C1C=CCC1C(c1ccccc1)N2 (centres unmarked)", "2750 nM"],
  ["O=C(O)c1ccc2c(c1)C1C=CCC1C(c1ccc(F)cc1)N2 (centres unmarked)", "2820 nM"]
]}

###

Target: CSR3 (Sweet potato chlorotic stunt virus)
Sequence (Q8JJW8 1-228): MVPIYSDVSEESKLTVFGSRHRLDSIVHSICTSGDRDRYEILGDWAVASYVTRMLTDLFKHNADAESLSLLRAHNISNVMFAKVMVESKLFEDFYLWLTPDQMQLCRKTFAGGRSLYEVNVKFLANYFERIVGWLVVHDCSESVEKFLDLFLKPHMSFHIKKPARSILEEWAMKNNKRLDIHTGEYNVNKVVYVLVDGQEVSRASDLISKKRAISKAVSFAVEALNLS
Assay: Binding affinity assay using MST
Conditions: MST behaviour of compound (V-shape response, fluorescence quenching, interference, aggregator)
measuredProperty: Comments

{"columns": ["chemicalStructure", "obsValue"],
 "data": [
  ["O=S(=O)(O)c1cccc2cc(O)ccc12", "Interference"],
  ["O=C1c2c(O)ccc(O)c2C(=O)c2c(NCCNCCO)ccc(NCCNCCO)c21", "Interference"]
]}

###

system: SPFMV; experiment: Virus accumulation (RT-qPCR of coat protein RNA) in coinfected sweetpotato plants grown in culture medium: SPFMV; assay type: in vivo, Sweet potato feathery mottle virus; details: plants in culture medium, 50 μM
measuredProperty: viral titer SPFMV (log2 fold change relative to controls)

{"columns": ["molecule", "testedTarget", "obsValue"],
 "data": [
  ["O=C(O)c1ccc2c(c1)C1C=CCC1C(c1ccccc1)N2 (stereo not shown)", "SPFMV", "−1.77"],
  ["O=C(O)c1ccc2c(c1)C1C=CCC1C(c1ccc(F)cc1)N2 (stereo not shown)", "SPFMV", "−1.72"],
  ["O=C(O)c1ccc(C2Nc3c(Br)cccc3C3C=CCC32)cc1 (stereo not shown)", "SPFMV", "−1.93"],
  ["Cc1ccc(C2Nc3ccc(C(=O)O)cc3C3C=CCC32)cc1 (stereo not shown)", "SPFMV", "−0.82"]
]}

###

# Kd listing for each entry below
Biological target: CSR3 (Sweet potato chlorotic stunt virus)
Sequence (Q8JJW8 1-228): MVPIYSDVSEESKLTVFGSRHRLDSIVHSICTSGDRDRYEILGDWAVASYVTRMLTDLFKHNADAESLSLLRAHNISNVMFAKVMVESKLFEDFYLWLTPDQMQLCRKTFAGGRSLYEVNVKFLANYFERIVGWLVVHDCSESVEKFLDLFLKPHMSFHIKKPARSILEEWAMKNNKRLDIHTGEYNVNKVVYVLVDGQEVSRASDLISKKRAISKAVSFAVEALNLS
Experiment: Binding affinity assay using SPR
Conditions: SPR dose-response 3 μM to 200 μM, 25°C; unit inferred, numbers match M (cf. Fig 5A); read-out: Steady State Affinity
measuredProperty: Kd (µM)

{"columns": ["compound", "measuredProperty", "obsValue"],
 "data": [
  ["O=C(O)c1ccc2c(c1)C1C=CCC1C(c1ccc(F)cc1)N2 (stereo not shown)", "Kd", 3.65],
  ["Cc1ccc(C2Nc3ccc(C(=O)O)cc3C3C=CCC32)cc1 (stereo not shown)", "Kd", 3.76],
  ["Cc1ccc(C)c(C(=O)CSc2nnc[nH]2)c1", "Kd", 13],
  ["O=C1c2c(O)ccc(O)c2C(=O)c2c(NCCNCCO)ccc(NCCNCCO)c21", "Kd", 0.137]
]}
